- ASSAY SYSTEM: T1, peptide from the N-terminal coiled-coil region of human ANGPTL3 (hANGPTL3 peptide, SEQ ID NO: 338) (human)
- T1 construct: also called hANGPTL3 shift peptide
- T1 peptide: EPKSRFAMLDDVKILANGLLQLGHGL
- EXPERIMENTAL PROTOCOL: SPR, captured mAb, 500 nM peptide, 25C
MEASURE NAME: 500 nM hANGPTL3 peptide Bound (RU)
// units = RU; emit number, no label

| BINDER | 500 nM hANGPTL3 peptide Bound (RU) |
| --- | --- |
| H4H15319P (antibody, human IgG4, V domains shown, H4H prefix: human IgG4 Fc) VH: EVQLVESGGGVVRPGGSLRLSCAASGFTVDDYDMSWVRQTPGKGLEWISGINWNGGNTGYADSVKGRFIISRDSAKNSLFLQMNSLRAEDTALYHCWGAIGAFDIWGQGTMVTVSS VL: DIVMTQSPLSSPVTLGQPASISCRSSQSLVHSDGGTYLSWLQQRPGQPPRLLIYKIFNRFSGVPDRFSGSGAGTDFTLRISRVEAEDVGVYYCMQTTQFPLTFGGGTKVEIK | 0 |

Summary for this binder, H4H15335P (antibody, human IgG4, V domains shown, H4H prefix: human IgG4 Fc) VH: QVQLVESGGGVVQPGRSLRLSCAASGFTFNNYGIHWVRQAPGKGLEWVAVISYDESNKYYADSVKGRFTISRDNSKNTLYLQMNSLRAEDTAVYYCAKDIRIAARRHYYYYGMDVWGQGTTVTVSS VL: DIQMTQSPSSVSASVGDRVTITCRASQGISRWLAWYQQKPGKAPKLLIYAASSLESGVPARFSGSGSGTDFTLTISSLQPEDFATYYCQQANSFPITFGPGTKVDIK : 500 nM hANGPTL3 peptide Bound (RU) is -1
